- STUDY_TARGET: T1, human CNTN4-rabbit Fc (human; rabbit, UniProt Q8IWV2 19-1000, limits assumed)
- T1 construct: not shown: rabbit Fc
- T1 sequence (looked up): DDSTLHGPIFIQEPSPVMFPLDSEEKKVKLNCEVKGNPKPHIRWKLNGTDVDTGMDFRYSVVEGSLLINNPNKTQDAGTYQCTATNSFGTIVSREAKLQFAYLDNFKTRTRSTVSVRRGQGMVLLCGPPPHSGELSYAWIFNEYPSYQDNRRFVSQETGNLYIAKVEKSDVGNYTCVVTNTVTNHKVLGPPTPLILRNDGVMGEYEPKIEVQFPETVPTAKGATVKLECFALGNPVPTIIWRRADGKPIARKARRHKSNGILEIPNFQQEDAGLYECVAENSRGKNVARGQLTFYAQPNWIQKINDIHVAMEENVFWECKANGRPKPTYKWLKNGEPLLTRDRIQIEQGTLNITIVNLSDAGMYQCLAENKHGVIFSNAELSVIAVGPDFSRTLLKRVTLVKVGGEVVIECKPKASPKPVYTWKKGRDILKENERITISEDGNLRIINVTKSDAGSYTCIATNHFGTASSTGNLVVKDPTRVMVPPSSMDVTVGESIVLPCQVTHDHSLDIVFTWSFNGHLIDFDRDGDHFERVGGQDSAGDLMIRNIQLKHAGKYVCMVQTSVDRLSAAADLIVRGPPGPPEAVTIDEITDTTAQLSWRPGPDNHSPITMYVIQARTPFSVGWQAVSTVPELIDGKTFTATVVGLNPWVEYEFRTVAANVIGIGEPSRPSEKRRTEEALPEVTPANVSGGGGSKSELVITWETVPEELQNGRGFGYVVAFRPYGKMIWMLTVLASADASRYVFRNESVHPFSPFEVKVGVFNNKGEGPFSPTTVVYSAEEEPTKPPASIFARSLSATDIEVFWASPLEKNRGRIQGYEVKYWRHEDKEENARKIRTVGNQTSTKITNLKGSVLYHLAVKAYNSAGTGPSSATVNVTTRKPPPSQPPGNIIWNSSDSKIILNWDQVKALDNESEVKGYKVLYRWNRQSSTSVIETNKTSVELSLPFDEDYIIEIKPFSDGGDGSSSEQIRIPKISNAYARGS
- RUN_DESCRIPTION: ELISA, plate coated with antigen-rabbit Fc, anti-human kappa-HRP
EC50: recorded values
Note: unit nM is implicit; provide only the numeric part.

BINDER	EC50 [nM]
anti-CNTN4 scFv-hCk S4 (scFv, part only; not given: linker and kappa constant region, not shown: a dimerising Fc or GST) scFv, part: ALTQPSSVSANPGESVKITCSGGGSSYYGWYQQKSPGSAPVTLIYQNTNRPSNIPSRFSGSGSGSTGTLTITGVRAEDEAVYYCGGYDGSTDVFGAGTTLTVLAVTLDESEGGLQTPGGALSLVCKASGFTFSSFNMFWVRQAPGKGLEYVAEISGGGGSTWYASAVKGRATISRDNGQSTVRLQLNNLRAEDTGTYYCAKSADTWSYGAATIDAWGHGTEVIVSS	2.6

Query binder follows.
Entry under test: anti-CNTN4 scFv-hCk S132 (scFv, part only; not given: linker and kappa constant region, V domains shown, not shown: another chain or arm of the molecule; a dimerising Fc or GST; small tags and cut ends) VL: ALTQPSSVSANPGETVKITCSGGGSSTYYGWYQQKSPGSAPVTVIYNNNNRPSDIPSRFSGSGSGSTGTLTITGVRAEDEAVYYCGGYDGSTDVFGAGTTLTVL VH: AVTLDESGGGLQTPGGALSLVCKASGFTFSSFNMFWVRQAPGKGLEYVAEISGGGGSTWYAPAVKGRATISRDNGQSTVRLQLNNLRAEDTGTYYCAKSADTWSYGAATIDAWGHGTEVIVSS . Its EC50 was 1.16
